assay: The drug is tested on Z-027 corresponding to metagenome with ENA study accession number: PRJEB37062 and ENA sample accession number: ERS12561826 for biotransformation under anaerobic condition. The drug concentrations were measured over 9 timepoints collected between 0 and 24 hours of incubation by liquid-chromatography-coupled mass spectrometry (LC–MS); conditions: 2 µM; note: call rule not given here
ENDPOINT: Bacterial Biotransformation

Ask: Entry under review: CN1[C@@H]2CC[C@H]1C[C@@H](OC(=O)[C@H](CO)c1ccccc1)C2 . Reported Bacterial Biotransformation?
Reply: Compound NOT metabolized

Ask: So what's the measured Bacterial Biotransformation for this one? C#C[C@]1(OC(C)=O)CC[C@H]2[C@@H]3CCC4=C/C(=N/O)CC[C@@H]4[C@H]3CC[C@@]21CC [NORGESTIMATE]
Reply: Compound NOT metabolized

Ask: Bench note: what Bacterial Biotransformation did CC(C)(C)NC(=O)[C@H]1CC[C@H]2[C@@H]3CC[C@H]4NC(=O)C=C[C@]4(C)[C@H]3CC[C@]12C [FINASTERIDE] show?
Reply: Compound metabolized

Ask: Can you look up the measured Bacterial Biotransformation of CCS(=O)(=O)CCn1c([N+](=O)[O-])cnc1C for me?
Reply: Compound metabolized

Ask: Bench note: what Bacterial Biotransformation did CC(=O)OCC(CCn1cnc2cnc(N)nc21)COC(C)=O show?
Reply: Compound NOT metabolized

New cases:
Ask: Which Bacterial Biotransformation is listed for Br.COc1ccc2c(c1)[C@]13CCCC[C@@H]1[C@H](C2)N(C)CC3.O [DEXTROMETHORPHAN HYDROBROMIDE] ?
Reply: Compound NOT metabolized

Ask: Query (compound): O=C1CCc2ccc(OCCCCN3CCN(c4cccc(Cl)c4Cl)CC3)cc2N1 ; field requested: Bacterial Biotransformation
Reply: Compound NOT metabolized

Ask: What value of Bacterial Biotransformation has been reported for the following compound? COc1ccnc(C[S+]([O-])c2nc3ccc(OC(F)F)cc3[nH]2)c1OC (stereo not given)
Reply: Compound metabolized

Ask: Fill in: Bacterial Biotransformation of N#Cc1ccc2[nH]cc(CCCCN3CCN(c4ccc5oc(C(N)=O)cc5c4)CC3)c2c1 is ___
Reply: Compound NOT metabolized

---

details: human gut metagenome, 24 h, 2 µM
ENDPOINT: Bacterial Biotransformation

Sample records with Bacterial Biotransformation:
Ask: What value of Bacterial Biotransformation has been recorded for this entry: CCN(C)C(=O)Oc1cccc([C@H](C)N(C)C)c1.O=C(O)C(O)C(O)C(=O)O [RIVASTIGMINE TARTRATE]
Reply: Compound metabolized

Ask: Could you share which Bacterial Biotransformation value was measured for CNCC[C@H](Oc1cccc2ccccc12)c1cccs1 [DULOXETINE] ?
Reply: Compound NOT metabolized

Ask: // Bacterial Biotransformation lookup, key: Clc1cccc(Cl)c1N=C1NCCN1 [CLONIDINE]
Reply: Compound NOT metabolized

Ask: Look up Bacterial Biotransformation for this molecule: CC#C[C@]1(O)CC[C@H]2[C@@H]3CCC4=CC(=O)CCC4=C3[C@@H](c3ccc(N(C)C)cc3)C[C@@]21C [MIFEPRISTONE]
Reply: Compound NOT metabolized

Ask: So what's the measured Bacterial Biotransformation for this one? CCN(CC)CCNC(=O)c1cc(S(C)(=O)=O)ccc1OC [TIAPRIDE]
Reply: Compound metabolized

Okay, next one:
Ask: Name the recorded Bacterial Biotransformation for O=C(NC(Cc1cc(=O)[nH]c2ccccc12)C(=O)O)c1ccc(Cl)cc1 (stereo not drawn) [REBAMIPIDE] .
Reply: Compound NOT metabolized
